system: Tubulin (Homo sapiens) (UniProt P68371+Q9H4B7+P0DPH7+P68366+Q13509+Q71U36+P04350+Q3ZCM7+P07437+P68363+Q9BQE3+Q6PEY2+Q13885+Q9BVA1+Q9BUF5)
run-description: Inhibition of [3H]colchicine binding to tubulin at 1 uM
Type: protein-complex assay
recorded-metric: inhibition (%)

>>> obs_value("COc1ccc(S(=O)(=O)N2CCc3cccc(NC(=O)c4ccc([N+](=O)[O-])cc4)c32)cc1")
62
>>> obs_value("COc1ccc(S(=O)(=O)N2CCc3cccc(NC(=O)c4ccncc4)c32)cc1")
78
>>> obs_value("COc1ccc(S(=O)(=O)N2CCc3cccc(NC(=O)c4ccc(F)cc4)c32)cc1")
65
>>> obs_value("COc1ccc(S(=O)(=O)N2CCc3cccc(NC(=O)c4ccco4)c32)cc1")
74
>>> obs_value("COc1ccc(S(=O)(=O)N2CCc3cccc(NC(C)=O)c32)cc1")
57
>>> obs_value("COc1ccc(S(=O)(=O)N2CCc3cccc(NC(=O)c4cccs4)c32)cc1")
75

* * *

# IC50 per entry
Tested on: TSGH 9201
run-description: Cytotoxicity against human TSGH cell line by methylene blue dye assay
Format: functional, cell-based
# output: bare number, implied unit nM

Would you please look over these solved cases?
>>> obs_value("COc1ccc(S(=O)(=O)N2CCc3cccc(NC(=O)c4cccs4)c32)cc1")
54
>>> obs_value("COc1ccc(S(=O)(=O)N2CCc3cccc(NC(=O)c4ccco4)c32)cc1")
11.1
>>> obs_value("COc1ccc(S(=O)(=O)N2CCc3cccc(NC(C)=O)c32)cc1")
103
>>> obs_value("COc1ccc(S(=O)(=O)N2CCc3cccc(NC(=O)c4ccncc4)c32)cc1")
10.8

Turning to the following compound.
GET /values?readout=IC50&item= COc1ccc(S(=O)(=O)N2CCc3cccc(NC(=O)c4ccc([N+](=O)[O-])cc4)c32)cc1
116

* * *

system: Tubulin (Homo sapiens) (UniProt P68371+Q9H4B7+P0DPH7+P68366+Q13509+Q71U36+P04350+Q3ZCM7+P07437+P68363+Q9BQE3+Q6PEY2+Q13885+Q9BVA1+Q9BUF5)
run-description: Inhibition of [3H]colchicine binding to tubulin at 5 uM
Assay type: protein-complex assay
recorded-metric: inhibition (%)

>>> obs_value("COc1ccc(S(=O)(=O)N2CCc3cccc(NC(=O)c4ccco4)c32)cc1")
95
>>> obs_value("COc1ccc(S(=O)(=O)N2CCc3cccc(NC(=O)c4ccc(F)cc4)c32)cc1")
93
>>> obs_value("COc1ccc(S(=O)(=O)N2CCc3cccc(NC(=O)c4ccncc4)c32)cc1")
96
>>> obs_value("COc1ccc(S(=O)(=O)N2CCc3cccc(NC(=O)c4ccc([N+](=O)[O-])cc4)c32)cc1")
91
>>> obs_value("COc1ccc(S(=O)(=O)N2CCc3cccc(NC(C)=O)c32)cc1")
86
>>> obs_value("COc1ccc(S(=O)(=O)N2CCc3cccc(NC(=O)c4cccs4)c32)cc1")
94
